target: T1, Claudin 18.2 (CLDN18.2), expressed on CHOS-CLDN 18.2 / HEK293-CLDN 18.2 / HCC827-CLDN 18.2 cells (human, UniProt P56856-2 1-261); assay: FACS, CHOS-CLDN18.2 cells, 20 µg/ml
T1 construct: whole, on cells; The species is not repeated for the CHOS-CLDN 18.2 cells; also called claudin-18A2
This section presents binders with their documented FACS reading values.
# answer = number (no unit)

Illustrative cases are given below, each with its answer.
binder	FACS reading
QP14491448 (antibody, human IgG1, kappa, V domains shown, Humanized from QP199200) VH: EVQLVESGGGLVQPGGSLRLSCAASGFTFSSFGMHWVRQAPGKGLEWVSYISSGSNSIYYVDTVKGRFTISRDNAKNSLYLQMNSLRDEDTAVYYCARNAYYGNSFDYWGQGTLVTVSS VL: DIVMTQSPDSLAVSLGERATISCKSSQSLLNSGNQKNYLTWYQQKPGQPPKLLIYWASTRESGVPDRFTGSGSGTVFTLTISSLQAEDVAVYFCQNNYYYPLTFGGGTKVEIKR	183000
QP024025 (antibody, human IgG1, V domains shown, also called IMAB362; 175D10(IMAB362)) VH: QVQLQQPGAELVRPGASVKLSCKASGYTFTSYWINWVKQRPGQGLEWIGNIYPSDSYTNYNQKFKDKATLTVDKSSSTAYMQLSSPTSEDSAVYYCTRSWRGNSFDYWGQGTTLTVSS VL: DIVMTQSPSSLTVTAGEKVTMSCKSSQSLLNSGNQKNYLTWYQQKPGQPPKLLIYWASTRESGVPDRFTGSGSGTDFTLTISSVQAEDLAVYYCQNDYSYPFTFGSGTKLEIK	72300
QP199200 (antibody, human IgG1, V domains shown, Chimeric; also called 43C11; mouse-derived chimeric antibody QP199200) VH: DVQLVESGGGLVQPGGSRKLSCAASGFTFSSFGMHWVRQAPEKGLEWVAYISSGSNSIYYVDTVKGRFTISRDNPKNTLFLQMTSLKSEDTAMYYCARNAYYGNSFDYWGQGTTLTVSS VL: DIVMTQSPSSLTVTAGEKVTMSCKSSQSLLNSGNQKNYLTWYQQKPGQPPKLLIYWASTRESGVPDRFTGSGSGTVFTLTISSVQAEDLAVYFCQNNYYYPLTFGAGTKLELK	218000
QP14501448 (antibody, human IgG1, kappa, V domains shown, Humanized from QP199200) VH: EVQLVESGGGLVQPGGSLRLSCAASGFTFSSFGMHWVRQAPGKGLEWVAYISSGSNSIYYVDTVKGRFTISRDNAKNSLYLQMNSLRDEDTAVYYCARNAYYGNSFDYWGQGTLVTVSS VL: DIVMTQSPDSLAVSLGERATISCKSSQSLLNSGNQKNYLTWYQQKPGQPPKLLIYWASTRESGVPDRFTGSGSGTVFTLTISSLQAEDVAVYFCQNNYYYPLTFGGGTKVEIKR	117000

Now, please, on to the next binder.
Qu. Sample QP14501446 (antibody, human IgG1, kappa, V domains shown, Humanized from QP199200) VH: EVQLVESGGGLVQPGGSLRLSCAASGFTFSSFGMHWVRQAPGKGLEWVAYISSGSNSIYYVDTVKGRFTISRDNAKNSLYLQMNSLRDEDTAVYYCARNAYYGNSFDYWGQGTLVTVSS VL: DIVMTQSPDSLAVSLGERATINCKSSQSLLNSGNQKNYLTWYQQKPGQPPKLLIYWASTRESGVPDRFSGSGSGTDFTLTISSLQAEDVAVYYCQNNYYYPLTFGGGTKVEIKR — what was its FACS reading?
Ans. 160000
